Target Desc: T1, cynomolgus monkey B7-H1 expressed on cells (cynomolgus monkey, UniProt G7PSE7 19-290)
T1 construct: whole, on cells; also called cyno B7-H1; cynomologus B7-H1
T1 sequence (G7PSE7 entry or part of it): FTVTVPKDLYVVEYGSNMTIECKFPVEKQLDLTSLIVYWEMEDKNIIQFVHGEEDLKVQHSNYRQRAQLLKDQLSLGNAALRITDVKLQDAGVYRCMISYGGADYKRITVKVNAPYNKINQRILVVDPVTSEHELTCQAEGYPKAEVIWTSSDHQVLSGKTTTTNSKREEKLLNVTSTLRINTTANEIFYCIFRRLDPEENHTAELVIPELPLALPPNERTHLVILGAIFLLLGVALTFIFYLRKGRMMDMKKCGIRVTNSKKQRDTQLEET
Test Details: FMAT, hybridoma supernatant, 293T cells expressing cynomolgus monkey B7-H1

Binder: 2.7A4 (antibody, IgG2, V domains shown, also called mAb 2.7A4) VH: EVQLVESGGGLVKPGGSLRLSCAASGFTFSTYSMNWVRQAPGKGLEWVSSISSSGDYIYYADSVKGRFTISRDNAKNSLFLQMNSLKAEDTAVYYCARDLVTSMVAFDYWGQGTLVTVSS VL: SYELTQPPSVSVSPGQAARITCSGDALPQKYVFWYQQKSGQAPVLVIYEDSKRPSGIPERFSGSSSGTMATLTISGAQVEDEADYYCYSTDRSGNHRVFGGGTRLTVL
FL1 × count: 513000
//
Binder: 2.20A8 (antibody, IgG2, V domains shown, also called mAb 2.20A8) VH: EVQLLESGGGLVQPGGSLRLSCAASGFTFSNYAMSWVRQAPGKGLEWVSAIRGSGGSTYYADSVKGRFTISRDNSKNTLYLQMNSLRAEDTAVYYCAKDLHYDSSGYLDYWGQGTLVTVSS VL: DIQMTQSPSSVSASVGDRVTITCRASQGIRSWLAWYQQKPGKAPKLLIYAISRLQSGVPSRFSGSGSGTDFTLTISSLQPEDFATYYCQQANSFPLTFGGGTKVEIK
FL1 × count: 515000
//
Binder: 2.14H9 (antibody, IgG2, V domains shown, also called mAb 2.14H9) VH: EVQLVESGGGLVQPGGSLRLSCAASGFTFSRYWMSWVRQAPGKGLEWVANIKQDGSEKYYVDSVKGRFTISRDNAKNSLYLQMNSLRAEDTAVYYCAREGGWFGELAFDYWGQGTLVTVSS VL: EIVLTQSPGTLSLSPGERATLSCRASQRVSSSYLAWYQQKPGQAPRLLIYDASSRATGIPDRFSGSGSGTDFTLTISRLEPEDFAVYYCQQYGSLPWTFGQGTEVEIK
FL1 × count: 380000

Recorded values, source patent US20130034559A1.
